Test system: U87MG cells
method: Cell proliferation assay for U87MG cells
Assay type: cell-based
test_settings: 50 μM, five days, trypan blue cell count (FIG. 1)
Quick rule: U87MG cell proliferation compared to control of at least 10% means T, below that means F.

Prompt: Would you say `CCOC(=O)c1nnsc1SC/C=C(\C)CC/C=C(\C)CCC=C(C)C` shows U87MG cell proliferation compared to control at minimum 10%?
Completion: T

Prompt: Decide: U87MG cell proliferation compared to control of `CC(C)=CCC/C(C)=C/CC/C(C)=C/CSc1ccccc1C1=NCCN1` >= 10%?
Completion: F

Prompt: Is U87MG cell proliferation compared to control at least 10%? Consider CC(C)=CCC/C(C)=C/CC/C(C)=C/CSc1ccccc1C(=O)O [FTS, farnesyl-thiosalicylic acid, reference compound]
Completion: F

Please turn your attention to the following entry.
Prompt: Would you say `CC(C)=CCC/C(C)=C/CC/C(C)=C/CSc1ccccc1-c1nn[nH]n1` shows U87MG cell proliferation compared to control at minimum 10%?
Completion: T

----------
Test system: LAM cells
method: IC50 assay with lymphangioleiomyomatosis (LAM) cells
Assay type: cell-based
test_settings: Homo sapiens, 0.1 to 50 μM, read-out: half-maximal inhibition of viability
readout_label: IC50
In your response, the unit should come after the numeric value.

Prompt: Please report the measured IC50 for `CC(C)=CCC/C(C)=C/CC/C(C)=C/CSc1ccccc1C1=NCCN1`
Completion: 4 µM

----------
Test system: JW16 cells
method: IC50 assay with JW16 mouse MPNST cells
Type: cell-based
test_settings: 0.5 to 20 μM, read-out: half-maximal effect on viability
readout_label: pIC50
One number for each entry, as −log10 of the molar value.

Prompt: Output reported pIC50 of the compound `CC(C)=CCC/C(C)=C/CC/C(C)=C/CSc1ccccc1C1=NCCN1` on JW16 cells.
Completion: 5.66

Source of measurements: patent US9738614B2
